TARGET_ENTITY: T1, rHuman IGF-1 sR, (IGF-1 sR), CF (R&D Systems Cat#391-GR) (human, UniProt P08069 31-932)
T1 construct: Bought recombinant soluble receptor; also called insulin-like growth factor-1 soluble receptor
TEST_PROTOCOL: ECL multispot (MSD) binding assay, antigen spotted on plate;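 also: purified Fab incubated 1 h at 20 °C on antigen spots, detected with TAG-labelled antibody, electrochemiluminescence compared with each well's blank, signal-to-blank ratio ≥4 counted as hit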
Reported ECL signal values are given for each entry in this list.

Sample answers from the record:
Ask | Returns the measured ECL signal for the input binder. Input: Fab VH1-46_IGHD6-6*01_IGHJ1*01 S102A/S103P/S104F/H111F (APFF) & L6_IGKJ1*01 S31L (Fab, V domains shown, Tested as Fab (CH1 with His6/Flag tags, kappa CL) made in E. coli; also called APFF / S31L) VH: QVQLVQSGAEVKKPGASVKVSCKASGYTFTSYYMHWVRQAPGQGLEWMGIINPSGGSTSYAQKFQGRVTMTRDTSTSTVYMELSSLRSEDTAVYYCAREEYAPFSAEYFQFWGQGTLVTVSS VL: EIVLTQSPATLSLSPGERATLSCRASQSVSLYLAWYQQKPGQAPRLLIYDASNRATGIPARFSGSGSGTDFTLTISSLEPEDFAVYYCQQRSNWPPWTFGQGTKVEIKR
Reply | 405

Ask | Returns the measured ECL signal for the input binder. Input: Fab VH1-46_IGHD6-6*01_IGHJ1*01 S102A/S103P/S104F/H111F (APFF) & L6_IGKJ1*01 S31A (Fab, V domains shown, Tested as Fab (CH1 with His6/Flag tags, kappa CL) made in E. coli; also called APFF / S31A) VH: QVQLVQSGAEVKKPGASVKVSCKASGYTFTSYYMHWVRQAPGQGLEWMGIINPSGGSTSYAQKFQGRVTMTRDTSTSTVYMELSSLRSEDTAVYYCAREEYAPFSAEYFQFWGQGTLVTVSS VL: EIVLTQSPATLSLSPGERATLSCRASQSVSAYLAWYQQKPGQAPRLLIYDASNRATGIPARFSGSGSGTDFTLTISSLEPEDFAVYYCQQRSNWPPWTFGQGTKVEIKR
Reply | 334

Ask | Returns the measured ECL signal for the input binder. Input: Fab VH1-46_IGHD6-6*01_IGHJ1*01 S102A/S103P/S104F/H111F (APFF) & L6_IGKJ1*01 S31M (Fab, V domains shown, Tested as Fab (CH1 with His6/Flag tags, kappa CL) made in E. coli; also called APFF / S31M) VH: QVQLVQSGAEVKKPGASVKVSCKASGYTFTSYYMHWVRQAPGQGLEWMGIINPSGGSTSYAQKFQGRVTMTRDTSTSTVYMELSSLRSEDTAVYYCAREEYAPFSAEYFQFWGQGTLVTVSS VL: EIVLTQSPATLSLSPGERATLSCRASQSVSMYLAWYQQKPGQAPRLLIYDASNRATGIPARFSGSGSGTDFTLTISSLEPEDFAVYYCQQRSNWPPWTFGQGTKVEIKR
Reply | 445

***
Ask | Returns the measured ECL signal for the input binder. Input: Fab VH1-46_IGHD6-6*01_IGHJ1*01 S102A/S103P/S104F/H111F (APFF) & L6_IGKJ1*01 S31H (Fab, V domains shown, Tested as Fab (CH1 with His6/Flag tags, kappa CL) made in E. coli; also called APFF / S31H) VH: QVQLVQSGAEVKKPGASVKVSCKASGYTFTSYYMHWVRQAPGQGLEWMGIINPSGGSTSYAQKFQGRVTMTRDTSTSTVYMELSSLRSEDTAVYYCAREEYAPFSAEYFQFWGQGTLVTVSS VL: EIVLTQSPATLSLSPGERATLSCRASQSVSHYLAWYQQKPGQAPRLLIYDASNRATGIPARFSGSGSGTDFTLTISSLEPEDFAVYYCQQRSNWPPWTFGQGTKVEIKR
Reply | 350

Ask | Returns the measured ECL signal for the input binder. Input: Fab VH1-46_IGHD6-6*01_IGHJ1*01 S102A/S103P/S104F/H111F (APFF) & L6_IGKJ1*01 S31V (Fab, V domains shown, Tested as Fab (CH1 with His6/Flag tags, kappa CL) made in E. coli; also called APFF / S31V) VH: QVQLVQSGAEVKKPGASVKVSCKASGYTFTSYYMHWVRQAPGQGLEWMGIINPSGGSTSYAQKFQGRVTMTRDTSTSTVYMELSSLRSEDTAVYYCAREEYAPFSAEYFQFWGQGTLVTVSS VL: EIVLTQSPATLSLSPGERATLSCRASQSVSVYLAWYQQKPGQAPRLLIYDASNRATGIPARFSGSGSGTDFTLTISSLEPEDFAVYYCQQRSNWPPWTFGQGTKVEIKR
Reply | 335

Ask | Returns the measured ECL signal for the input binder. Input: Fab VH1-46_IGHD6-6*01_IGHJ1*01 S102A/S103P/S104F/H111F (APFF) & L6_IGKJ1*01 S31I (Fab, V domains shown, Tested as Fab (CH1 with His6/Flag tags, kappa CL) made in E. coli; also called APFF / S31I) VH: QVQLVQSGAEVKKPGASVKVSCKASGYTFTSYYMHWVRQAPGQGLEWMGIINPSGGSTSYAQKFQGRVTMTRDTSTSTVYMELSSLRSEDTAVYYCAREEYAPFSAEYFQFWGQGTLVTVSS VL: EIVLTQSPATLSLSPGERATLSCRASQSVSIYLAWYQQKPGQAPRLLIYDASNRATGIPARFSGSGSGTDFTLTISSLEPEDFAVYYCQQRSNWPPWTFGQGTKVEIKR
Reply | 365

Ask | Returns the measured ECL signal for the input binder. Input: Fab VH1-46_IGHD6-6*01_IGHJ1*01 S102A/S103P/S104F/H111F (APFF) & L6_IGKJ1*01 S31D (Fab, V domains shown, Tested as Fab (CH1 with His6/Flag tags, kappa CL) made in E. coli; also called APFF / S31D) VH: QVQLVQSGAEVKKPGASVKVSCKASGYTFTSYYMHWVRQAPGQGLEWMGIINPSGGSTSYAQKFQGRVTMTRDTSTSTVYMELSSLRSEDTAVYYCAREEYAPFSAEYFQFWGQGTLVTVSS VL: EIVLTQSPATLSLSPGERATLSCRASQSVSDYLAWYQQKPGQAPRLLIYDASNRATGIPARFSGSGSGTDFTLTISSLEPEDFAVYYCQQRSNWPPWTFGQGTKVEIKR
Reply | 407

Ask | Returns the measured ECL signal for the input binder. Input: Fab VH1-46_IGHD6-6*01_IGHJ1*01 S102A/S103P/S104F/H111F (APFF) & L6_IGKJ1*01 S31F (Fab, V domains shown, Tested as Fab (CH1 with His6/Flag tags, kappa CL) made in E. coli; also called APFF / S31F) VH: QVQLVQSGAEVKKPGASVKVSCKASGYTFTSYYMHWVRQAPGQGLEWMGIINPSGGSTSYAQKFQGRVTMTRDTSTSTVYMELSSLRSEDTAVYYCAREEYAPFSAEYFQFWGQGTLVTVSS VL: EIVLTQSPATLSLSPGERATLSCRASQSVSFYLAWYQQKPGQAPRLLIYDASNRATGIPARFSGSGSGTDFTLTISSLEPEDFAVYYCQQRSNWPPWTFGQGTKVEIKR
Reply | 267

Ask | Returns the measured ECL signal for the input binder. Input: Fab VH1-46_IGHD6-6*01_IGHJ1*01 S102A/S103P/S104F/H111F (APFF) & L6_IGKJ1*01 S31P (Fab, V domains shown, Tested as Fab (CH1 with His6/Flag tags, kappa CL) made in E. coli; also called APFF / S31P) VH: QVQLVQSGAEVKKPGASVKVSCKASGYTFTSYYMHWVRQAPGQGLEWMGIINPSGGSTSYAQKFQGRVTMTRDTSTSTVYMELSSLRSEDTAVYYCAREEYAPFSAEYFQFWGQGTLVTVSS VL: EIVLTQSPATLSLSPGERATLSCRASQSVSPYLAWYQQKPGQAPRLLIYDASNRATGIPARFSGSGSGTDFTLTISSLEPEDFAVYYCQQRSNWPPWTFGQGTKVEIKR
Reply | 404
